Where these numbers come from: PubChem BioAssay (NCI)

tested on: U251 CNS; assay: NCI tumour cell line growth inhibition, 48 h
Each record here notes measured TGI.

| COMPOUND | ASSAY_TARGET | SIGN | TGI (µM) |
| --- | --- | --- | --- |
| CO[C@H]1C[C@@H]2CC[C@@H](C)[C@@](O)(O2)C(=O)C(=O)N2CCCC[C@H]2C(=O)O[C@H]([C@H](C)C[C@@H]2CC[C@@H](OP(C)(C)=O)[C@H](OC)C2)CC(=O)[C@H](C)/C=C(\C)[C@@H](O)[C@@H](OC)C(=O)[C@H](C)C[C@H](C)/C=C/C=C/C=C/1C | U251 CNS | = | 19.2 |
| COc1ccc2c(c1)CCCN1Cc3cc(OC)c(OC)cc3CC21 (stereo not given) | U251 CNS | > | 100 |
| CSCCCNC(=O)c1csc(-c2csc(CCN)n2)n1 | U251 CNS | > | 100 |
| Cc1cc2c3ccccc3ccc2[n+]2ccccc12 | U251 CNS | = | 10.1 |
| O=C1c2ccccc2-c2n[nH]c3cccc1c23 | U251 CNS | > | 100 |
| NC1=CN(Cc2ccccc2)C2=N/C(=C\c3ccccc3)C(=O)N12 | U251 CNS | > | 100 |
| C[C@]12CC[C@H](O)C=C1CC[C@@H]1[C@@H]2CC[C@]2(C)C(=N/O)/C(=C/c3ccncc3)C[C@@H]12 | U251 CNS | = | 19.6 |
| CCN(CC)CCOC(=O)CCN1CC2CCC(CC2)C1 | U251 CNS | > | 100 |
| Cc1cc(C)n(-c2nc3ccccc3c(=O)n2-c2ccccc2)n1 | U251 CNS | > | 100 |
| COc1cc2nc(N3CCCC3)nc(Nc3ccccc3)c2cc1OC | U251 CNS | = | 2.45 |
| Cc1ccccc1-c1c(N)nc(N)nc1C(=O)Nc1nccs1 | U251 CNS | > | 100 |
| Nc1nc(N)c2c(ccc3nccc32)[nH]1 | U251 CNS | > | 69.5 |
| COc1ccccc1N1C(=O)CS(=O)(=O)C1c1cccc(Oc2ccccc2)c1 (stereo not given) | U251 CNS | = | 29.7 |
| O=C(O)C[O][Sb][O]CC(=O)O | U251 CNS | > | 100 |
| O=C(Nc1nc2ccccc2n1Cc1ccc(Cl)cc1)NC12CC3CC(CC(C3)C1)C2 | U251 CNS | = | 46.9 |
| CN(C)CCNC(=O)Cn1ccc(=O)c2ccc([N+](=O)[O-])cc21 | U251 CNS | > | 100 |
| COc1cc2c(c(OC)c1OC)-c1ccc(SC)c(=O)cc1[C@@H](NCc1cccc(C#N)c1)CC2 | U251 CNS | = | 0.0434 |
| COc1ccc2nc(NC(=O)C(=O)C(C(=O)c3ccccc3-c3ccccc3)C3OC(=O)c4ccccc43)sc2c1 (stereo not given) | U251 CNS | = | 25.9 |
| C/C1=C\C/C=C(\C)[C@H]2CC(CC/C(C)=C/CC1)[C@@](C)(CO)O2 | U251 CNS | > | 100 |
| O=C(NCCNCCNCCNC(=O)c1cc(-c2ccccc2)nc2ccccc12)c1cc(-c2ccccc2)nc2ccccc12 | U251 CNS | = | 3.3 |

----------
system: 786-0 renal; assay: NCI tumour cell line growth inhibition, 48 h; in the data active = GI50 below about 0.43 µM; inactive = the rest
Outcomes: active, inactive

| MOLECULE | ASSAY_TARGET | GROUP_LABEL |
| --- | --- | --- |
| COc1cc(Cn2ccc3c2-c2oncc2CC3)cc(OC)c1 | 786-0 renal | inactive |
| Nc1ncnc2c(C3OC(CO)C(O)C3O)scc12 (stereo not given) | 786-0 renal | active |
| ICCC(c1ccccc1)(c1ccccc1)c1ccccc1 | 786-0 renal | inactive |
| Cc1ncc(C(=O)Nc2ccc(CN3CCN(C)CC3)c(C(F)(F)F)c2)cc1C#Cc1cnc(N)c2ncccc12 | 786-0 renal | inactive |
| CN1CCN(Cc2ccc(NC(=O)c3nc4ccc5[nH]ncc5c4c4c3CCC4)cc2C(F)(F)F)CC1 | 786-0 renal | inactive |
| C=CC(=O)N1CCC([C@@H]2CCNc3c(C(N)=O)c(-c4ccc(Oc5ccccc5)cc4)nn32)CC1 | 786-0 renal | inactive |
| COC(=O)c1ccc2c(c1)C(=O)c1c-2n(CCCN)c(=O)c2cc([N+](=O)[O-])ccc12 | 786-0 renal | active |
| C#C[C@@]1(O)[C@@H](CO)O[C@@H](n2ccc3c(N)ncnc32)[C@@H]1O | 786-0 renal | inactive |
| Cc1ccc2c(Nc3cccc(Cl)c3F)ncc(NC(=O)c3csc4c(N)ncnc34)c2c1 | 786-0 renal | inactive |
| Nc1nc(N)c2c(ccc3nccc32)[nH]1 | 786-0 renal | inactive |
| CO[C@H]1C[C@@H]2CC[C@@H](C)[C@@](O)(O2)C(=O)C(=O)N2CCCC[C@H]2C(=O)O[C@H]([C@H](C)C[C@@H]2CC[C@@H](OP(C)(C)=O)[C@H](OC)C2)CC(=O)[C@H](C)/C=C(\C)[C@@H](O)[C@@H](OC)C(=O)[C@H](C)C[C@H](C)/C=C/C=C/C=C/1C | 786-0 renal | inactive |
| Nc1c(C(=O)c2cccc(CCC3(O)CCCC3)c2)cnn1-c1ccc(F)cc1 | 786-0 renal | inactive |
| COc1ccc2[nH]c(=O)c(/C=C/C(=O)/C=C/c3ccc(O)c(OC)c3)cc2c1 | 786-0 renal | inactive |
| Nc1ccn(C2CC(O)C(CO)O2)c(=O)n1 (stereo not given) | 786-0 renal | inactive |
| O=C1c2cc3c(cc2[C@@H]2[C@H]1c1ccc([N+](=O)[O-])cc1C(=O)N2CCCCl)OCO3 | 786-0 renal | active |

----------
Each record here notes measured TGI.
tested on: SR leukemia; assay: NCI tumour cell line growth inhibition, 48 h
OBSERVABLE: TGI

| COMPOUND | RESULT |
| --- | --- |
| CN1C(=O)c2c(c3c4ccccc4n(C4OC(CO)C(O)C(O)C4O)c3c3[nH]c4ccccc4c23)C1=O (stereo not drawn) | 1.2 µM |
| CC1(c2nc3ccccc3[nH]2)CCC(C(N)=O)C(C)(C)O1 (stereo not drawn) | > 100 µM |
| O=C1c2ccccc2-c2n[nH]c3cccc1c23 | > 100 µM |

----------
tested on: 786-0 renal; test: NCI tumour cell line growth inhibition, 48 h
Each record here notes measured TGI.

| MOLECULE | ASSAY_TARGET | TGI |
| --- | --- | --- |
| Cc1cc2c(cc1C)C(=O)C1(C2)Cc2c(ccc(C)c2C)C1=O (stereo not given) | 786-0 renal | > 100 µM |
| CCOC(=O)Cn1c(C)c(/C=N/NC(=O)c2cc3c(ccc4ccccc43)o2)c2ccccc21 | 786-0 renal | 2.24 µM |
| COc1ccc2[nH]c(=O)c(/C=C/C(=O)/C=C/c3ccc(O)c(OC)c3)cc2c1 | 786-0 renal | 3.17 µM |
| CC1(O)CC23CC1CCC2(C)C12CCCC(C)(C(=O)O1)C2CC3O (stereo not given) | 786-0 renal | > 100 µM |
| C[C@]12CCC3c4ccc(O)cc4CCC3C1Cc1ccc(O)cc12 (stereo not given in full) | 786-0 renal | 18.1 µM |
| COc1cc2ccnc3c2c(c1OC)-c1ccc(=O)ccc1-3 | 786-0 renal | > 100 µM |
| N#Cc1c(N)c2c(c(-c3ccccc3)c1-c1ccccc1)C(=O)N(NC(=O)c1ccccc1)C2=O | 786-0 renal | > 100 µM |
| Cc1ccc(C(CC(=O)C(C)(C)CN2CCCCC2)SCCS(=O)(=O)O)cc1 (stereo not given) | 786-0 renal | 59.9 µM |
| CN(C)/C=C(\C(=O)c1ccccc1)n1nc(-c2ccccc2)cc1-c1ccccc1 | 786-0 renal | > 10 µM |
| O=C(Nc1nnc(-c2c(Cl)c(Cl)c(Cl)c(Cl)c2-c2nc3cc(C(=O)c4ccccc4)ccc3[nH]2)o1)c1ccccc1 | 786-0 renal | 30.5 µM |
| CCN(CC)CCn1c2cc3c(cc2c(=O)c2cccnc21)OCO3 | 786-0 renal | > 10 µM |
| Nc1ccn(C2CC(O)C(CO)O2)c(=O)n1 (stereo not given) | 786-0 renal | > 5000 µM |
| Nc1c(C(=O)c2cccc(C#CCN3CCOCC3)c2)cnn1-c1ccc(F)cc1 | 786-0 renal | > 25 µM |
| CC(=O)Nc1ccccc1-c1cnc2ccccc2n1 | 786-0 renal | > 100 µM |
| CC(CO)(CO)Nc1ncnc2ccccc12 | 786-0 renal | > 100 µM |

----------
tested on: SF-295 CNS; assay: NCI tumour cell line growth inhibition, 48 h; in the data active = GI50 below about 0.43 µM; inactive = the rest
Outcomes: Y = active, N = inactive

| COMPOUND | ASSAY_TARGET | GROUP_LABEL |
| --- | --- | --- |
| CC[C@H](C)[C@H](NC(=O)Nc1ccccc1)C(=O)N(C)[C@H](C[C@@H](OC(C)=O)c1nc(C(=O)N[C@@H](Cc2ccccc2)C[C@H](C)C(=O)OC)cs1)C(C)C | SF-295 CNS | N |
| C/C1=C\C/C=C(\C)[C@H]2CC(CC/C(C)=C/CC1)[C@@](C)(CO)O2 | SF-295 CNS | N |
| O=C(OCC1OC(OC(=O)c2cc(O)c(O)c(OC(=O)c3cc(O)c(O)c(O)c3)c2)C(OC(=O)c2cc(O)c(O)c(OC(=O)c3cc(O)c(O)c(O)c3)c2)C(OC(=O)c2cc(O)c(O)c(OC(=O)c3cc(O)c(O)c(O)c3)c2)C1OC(=O)c1cc(O)c(O)c(OC(=O)c2cc(O)c(O)c(O)c2)c1)c1cc(O)c(O)c(OC(=O)c2cc(O)c(O)c(O)c2)c1 (stereo unspecified) | SF-295 CNS | N |
| CC1(C)CC(OCCCC[P+](c2ccccc2)(c2ccccc2)c2ccccc2)CC(C)(C)N1O | SF-295 CNS | Y |
| CCC[CH2][Ge]([CH2]CCC)([CH2]CCC)[O]C(=O)C(OC)c1ccccc1 (stereo unspecified) | SF-295 CNS | N |
| CC(=O)O[C@H]1CC[C@]2(C)[C@H]3CC=C4[C@@H]5CC(C)(C)CC[C@]5(C(=O)NCCNCCN)CC[C@@]4(C)[C@]3(C)CC[C@H]2C1(C)C | SF-295 CNS | N |
